# protocolNotes: antimalarial activity against Dd2 strain (AID 2302)
# conditionDetails: P. falciparum Dd2 in RBCs, LDH growth readout, 72 h; at 2 µM
Active and inactive are the calls of the source.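 The calls were made as follows: active = growth inhibition above 50% at the single 2 µM test dose, taken to imply half-maximal potency below 2 µM; inactive = the rest.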
Outcomes: active, inactive

molecule=COc1cc(-c2cnc(N)c(-c3nc4ccccc4[nH]3)c2)cc(OC)c1OC assignedclass=active
molecule=CCCCN=C(N)Nc1ccc(OCCCOc2ccc(NC(N)=NCCCC)cc2)cc1 assignedclass=active
molecule=Cc1cc(N[C@@H](CC(C)C)C(=O)NCCOc2ccccc2)nc(NCCOc2ccccc2)n1 assignedclass=inactive
molecule=COc1ccc(NC(=O)Nc2nc(-c3ccc(Cl)c(C)c3)cs2)cc1N1CCN(C)CC1 assignedclass=active
molecule=NC(N)=Nc1nc(-c2cccc(NC(=O)CCCCCCCON3C(N)=NC(N)=NC34CCCCC4)c2)cs1 assignedclass=active
molecule=CN1CCN(c2cc3c(cc2Cl)CCN3C(=O)Nc2ccc(NC(=O)c3ccc(C(F)(F)F)cc3)cc2)CC1 assignedclass=active
molecule=c1ccc(-c2[nH]ncc2Nc2ccnc3ccccc23)nc1 assignedclass=active
molecule=O=S1(=O)C=C(c2ccccc2)CC1 assignedclass=inactive
molecule="Oc1ccc(Cl)cc1CN1CCC2(CCCN(CC3CCC3)C2)C1 (stereo not given)" assignedclass=active
molecule="COc1ccc2nccc([C@@H](O)CN3CCC(NCc4ccc5c(c4)NC(=O)C(C)S5)CC3)c2c1 (stereo not given in full)" assignedclass=active

====

# protocolNotes: HepG2 cytotoxicity, primary screen, cytotoxicity control for P. falciparum antimalarial project, cell-based, ATP luminescence (AID 2303)
# conditionDetails: HepG2 viability, 24-48 h, at 10 µM, stronger effect = higher value
Doc: threshold 20% (exclusive). Items with inhibition beneath it return Satisfied; others return Not satisfied.

compound=CON(CCCN(C)C)C(=N)N assignedclass=Satisfied
compound=CCOc1ccc(Cc2c(C)nc3nc(N)nc(N)c3c2C)cc1 assignedclass="Not satisfied"
compound=CCN(C)c1cc(C(=O)N[C@@H](Cc2ccccc2)[C@H](O)CNC(C)(C)c2cccc(OC)c2)cc(N2CCCC2=O)c1 assignedclass=Satisfied
compound="Cc1ccc(Nc2nccc(NCC(O)c3cccc(F)c3)n2)cc1 (configuration not stated)" assignedclass="Not satisfied"
compound="O=C(Nc1ccc(Cl)c(Cl)c1)C1CCC(=O)N1[C@@H](Cc1ccccc1)C(=O)NCCc1ccc(Cl)cc1 (some centres not stated)" assignedclass=Satisfied
compound=N#CCCN1CCN(Cc2cccc(-c3ccc(-c4nc5ccc(F)cc5[nH]4)cc3)c2)CC1 assignedclass=Satisfied
compound=O=C(Nc1ccc(Oc2ccccc2)cc1)N(Cc1ccc(-c2ccc(CN3CCNCC3)cc2)cc1)C1CCN(Cc2ccccc2)CC1 assignedclass="Not satisfied"
compound="Cc1cccn2c(=O)c3cc(C(=O)NC(C)c4ccccc4)c(=N)n(CCc4ccccc4)c3nc12 (configuration not stated)" assignedclass=Satisfied
compound="O=C(/C=C/c1ccc(Cl)c(Cl)c1)NCCCCCN1CCCC(CNC(=O)Nc2ccc(Oc3ccccc3)cc2)C1 (configuration not stated)" assignedclass="Not satisfied"
compound=COc1ccc(N2CCN(CCCCNCc3ccc(NC(=O)c4cc(Cl)cc(Cl)c4)cc3)CC2)c(OC)c1 assignedclass="Not satisfied"
compound=Cn1cncc1C(=O)Nc1cccc(-c2ccc(-c3nc4ccc(F)cc4[nH]3)cc2)c1 assignedclass=Satisfied
compound="Cc1ccc(-c2ccn(Cc3cccc(OCc4ccccc4)c3)n2)cn1 (tested in a mixture with another compound)" assignedclass=Satisfied
compound=CCOc1ccc(-c2nonc2NC(=O)c2ccco2)cc1OCC assignedclass=Satisfied
compound="COc1cc(Cc2cnc(N)nc2N)c2c(c1OC)OC(C)C=C2 (configuration not stated)" assignedclass=Satisfied
compound=COc1ccc(CNC2CCN(c3ccc(NC(=O)c4cccc(Cl)c4)cc3)CC2)cc1OC assignedclass="Not satisfied"
compound=Cc1cccc(C(=O)Nc2ccnc(N3CCCN(Cc4cccc(O)c4)CC3)c2)c1 assignedclass=Satisfied
compound=Cc1cccc(NC(=O)NC2CCN(CCCCCNC(=O)/C=C/c3ccc(Cl)c(Cl)c3)CC2)c1 assignedclass="Not satisfied"
compound=CCc1c[nH]c2c(N3CCCC3=O)cc(C(=O)N[C@@H](Cc3ccccc3)[C@H](O)CNC3CCCCC3)cc12 assignedclass=Satisfied
compound=O=c1cc(NCCCNCc2cc(C(F)(F)F)ccc2F)[nH]c2ccccc12 assignedclass=Satisfied
compound=Cn1nc(-c2ccc(NC(=O)Nc3cc(C(F)(F)F)ccc3F)cc2)c2cnc(NCCc3cnc[nH]3)nc21 assignedclass=Satisfied
compound=Cc1cccc2[nH]c(-c3ccc(-c4cccc(CNCCCNS(C)(=O)=O)c4)cc3)nc12 assignedclass=Satisfied
compound="CC(O)C1CCCCN1C(=O)c1cccc(-c2ccc(-c3nc4ccccc4[nH]3)s2)c1 (configuration not stated)" assignedclass="Not satisfied"
compound="c1cc(CNCC2CCCO2)cc(-c2cccc(-c3nc4ccccc4[nH]3)c2)c1 (configuration not stated)" assignedclass=Satisfied
compound=COc1cccc(C2CCN(CCN3CCC(CNC(=O)c4ccc(-c5ccc(C(F)(F)F)cc5)cc4)CC3)CC2)c1 assignedclass="Not satisfied"
compound=N#CCCN1CCN(Cc2ccc(-c3cccc(-c4nc5ccc(F)cc5[nH]4)c3)cc2)CC1 assignedclass=Satisfied
compound=Cc1csc2nc(-c3ccccn3)nc(Nc3ccc4ncsc4c3)c12 assignedclass=Satisfied
compound="CN1CCCC(CN2CCN(Cc3cccc(-c4ccc(-c5nc6ccc(C(F)(F)F)cc6[nH]5)cc4)c3)CC2)C1 (configuration not stated)" assignedclass="Not satisfied"
compound=c1cc(CNCCc2ccncc2)cc(-c2csc(-c3nc4ccccc4[nH]3)c2)c1 assignedclass=Satisfied
compound=Cc1cc(NC(=O)Nc2cccc(C#N)c2)c2ccccc2n1 assignedclass=Satisfied
compound="COc1ccc2nc3cc(Cl)ccc3c(NCCNCC(O)CO)c2n1 (configuration not stated)" assignedclass=Satisfied
compound=N=C(N)c1cccc(OCCCOc2cccc(NC(=O)Nc3ccc([N+](=O)[O-])cc3)c2)c1 assignedclass=Satisfied
compound=COc1ccc(-c2cc(C(=O)N[C@@H](CC3CCCCC3)C(=O)NCCN3CCCC3)ccc2O)cc1 assignedclass=Satisfied
compound=O=C(NCc1ccccc1)Nc1ccc(-c2cccc(-c3nc4ccc(C(F)(F)F)cc4[nH]3)c2)cc1 assignedclass="Not satisfied"
compound=Cc1cccc2[nH]c(-c3ccc(-c4cccc(CN5CCN(c6ccncc6)CC5)c4)s3)nc12 assignedclass="Not satisfied"
compound=NC(=NCCCc1ccccc1)c1cccc(C(N)=NCCCc2ccccc2)n1 assignedclass="Not satisfied"
compound=Cc1ccc2nc(-c3ccc(C(=O)NC4CCN(Cc5ccccc5)CC4)s3)[nH]c2c1 assignedclass=Satisfied

This collection of values is drawn from PubChem BioAssay.
